- Tested on: human exon-50 DMD GFP reporter (ex50GFP)
- assay.explanation: High-throughput screen in the Ex50GFP reporter cell line (C2C12 myoblasts, Prestwick library)
- measurement.context: 10 μM compound, no AO, GFP fluorescence after 48 h vs DMSO controls
Where a name gives a salt, the structure may show the parent alone.
One threshold, 7, splits the recorded Z Score, 'Compound only' screen values: lower ones are class 1, equal or higher ones are class 0.

# molecule, system.tested, category
measured = [
    ("CCN(CC)CCCC(C)Nc1c2ccc(Cl)cc2nc2ccc(OC)cc12 (stereo not drawn) [Quinacrine dihydrochloride dihydrate]", "human exon-50 DMD GFP reporter (ex50GFP)", "class 0"),
    ("COC(=O)C1=CO[C@@H](C)[C@@H]2CN3CCc4c([nH]c5ccccc45)[C@@H]3C[C@H]12 [Tetrahydroalstonine]", "human exon-50 DMD GFP reporter (ex50GFP)", "class 1"),
    ("CCN(CC)C(=O)N[C@H]1C[C@@H]2c3cccc4[nH]cc(c34)C[C@H]2N(C)C1 [S(+)-Terguride]", "human exon-50 DMD GFP reporter (ex50GFP)", "class 1"),
    ("CN1CCc2cccc3c2[C@H]1Cc1ccc(O)c(O)c1-3 [Apomorphine hydrochloride hemihydrate]", "human exon-50 DMD GFP reporter (ex50GFP)", "class 0"),
    ("CCc1nc(N)nc(N)c1-c1ccc(Cl)cc1", "human exon-50 DMD GFP reporter (ex50GFP)", "class 0"),
    ("COC(=O)C1=CO[C@@H](C)[C@H]2CN3CCc4c([nH]c5ccccc45)[C@@H]3C[C@H]12.Cl [Ajmalicine hydrochloride]", "human exon-50 DMD GFP reporter (ex50GFP)", "class 1"),
    ("O=C(Nc1ccc([N+](=O)[O-])cc1Cl)c1cc(Cl)ccc1O [Niclosamide]", "human exon-50 DMD GFP reporter (ex50GFP)", "class 0"),
    ("Nc1nc(O)c2[nH]nnc2n1", "human exon-50 DMD GFP reporter (ex50GFP)", "class 0"),
    ("COc1ccc2[nH]c3c(c2c1)CCN=C3C", "human exon-50 DMD GFP reporter (ex50GFP)", "class 0"),
    ("COC(=O)Nc1nc2ccc(Sc3ccccc3)cc2[nH]1", "human exon-50 DMD GFP reporter (ex50GFP)", "class 1"),
]

---

- System: human exon-50 DMD GFP reporter (ex50GFP)
- assay.explanation: High-throughput screen in the Ex50GFP reporter cell line (C2C12 myoblasts, Prestwick library)
- measurement.context: 10 μM compound, no AO, GFP fluorescence after 48 h vs DMSO controls

# molecule, Z Score, 'Compound only' screen
rows = [
    ("Clc1ccccc1C(c1ccccc1)(c1ccccc1)n1ccnc1 [Clotrimazole]", 6.50),
    ("COC(=O)[C@H]1[C@H]2C[C@@H]3c4[nH]c5cc(OC)ccc5c4CCN3C[C@H]2C[C@@H](OC(=O)c2cc(OC)c(OC)c(OC)c2)[C@@H]1OC [Reserpine]", 5.63),
    ("CC1=CC(=O)c2ccccc2C1=O [Menadione]", 10.12),
]
